Test system: Mast/stem cell growth factor receptor Kit (Homo sapiens), P10721 [T670I]
Sequence (P10721 whole entry T670I, the tested form may be a part): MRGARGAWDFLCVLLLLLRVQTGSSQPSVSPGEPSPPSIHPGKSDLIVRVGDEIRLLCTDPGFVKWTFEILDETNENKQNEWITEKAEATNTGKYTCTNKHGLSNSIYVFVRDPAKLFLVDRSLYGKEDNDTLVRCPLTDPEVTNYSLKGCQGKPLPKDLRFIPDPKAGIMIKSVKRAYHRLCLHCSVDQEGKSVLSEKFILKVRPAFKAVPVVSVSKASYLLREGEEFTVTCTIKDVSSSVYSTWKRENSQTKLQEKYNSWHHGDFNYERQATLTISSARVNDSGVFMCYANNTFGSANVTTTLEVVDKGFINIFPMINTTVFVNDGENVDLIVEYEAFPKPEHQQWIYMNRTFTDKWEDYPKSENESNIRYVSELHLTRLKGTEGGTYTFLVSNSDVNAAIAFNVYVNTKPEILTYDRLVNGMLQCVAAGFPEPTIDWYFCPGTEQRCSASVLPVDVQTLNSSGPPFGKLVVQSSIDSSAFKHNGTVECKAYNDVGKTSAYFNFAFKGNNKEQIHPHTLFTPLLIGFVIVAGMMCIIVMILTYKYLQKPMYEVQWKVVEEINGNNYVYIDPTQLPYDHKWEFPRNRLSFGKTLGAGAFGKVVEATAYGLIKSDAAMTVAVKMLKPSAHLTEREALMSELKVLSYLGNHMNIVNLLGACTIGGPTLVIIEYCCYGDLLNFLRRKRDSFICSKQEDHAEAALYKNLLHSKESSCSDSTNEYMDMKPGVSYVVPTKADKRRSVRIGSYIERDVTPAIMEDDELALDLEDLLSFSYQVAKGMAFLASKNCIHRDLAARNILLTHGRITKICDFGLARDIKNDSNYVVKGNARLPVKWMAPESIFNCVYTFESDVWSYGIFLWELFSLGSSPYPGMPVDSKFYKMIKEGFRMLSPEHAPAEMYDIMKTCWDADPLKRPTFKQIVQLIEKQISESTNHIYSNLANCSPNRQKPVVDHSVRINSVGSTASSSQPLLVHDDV
test.method.notes: Inhibition of TEL fused c-KIT T670I mutant (unknown origin) transfected in mouse BAF3 cells assessed as growth inhibition after 72 hrs by CCK8 assay
Assay type: cell-based
measured.quantity: GI50 (nM)

Task: Suppose we examine the compound O=C(CC(=O)Nc1ccc2c(/C=C/c3ccccn3)n[nH]c2c1)Nc1cccc(Br)c1 ; what GI50 value has been reported?
Output: 113

[1] O=C(Nc1ccc2c(/C=C/c3ccccn3)n[nH]c2c1)c1ccc(Cl)c(C(F)(F)F)c1
[2] CNC(=O)c1ccc(-c2n[nH]c3cc(NC(=O)CC(=O)Nc4ccc(Cl)c(C(F)(F)F)c4)ccc23)cc1
[3] O=C(CC(=O)Nc1ccc2c(/C=C/c3ccccn3)n[nH]c2c1)Nc1ccccc1
[4] CN1CCN(Cc2ccc(-c3n[nH]c4cc(NC(=O)CC(=O)Nc5ccc(Cl)c(C(F)(F)F)c5)ccc34)cc2)CC1
[5] CNC(=O)c1cncc(-c2n[nH]c3cc(NC(=O)CC(=O)Nc4ccc(Cl)c(C(F)(F)F)c4)ccc23)c1
Task: Sort these compounds on GI50 so the largest reading comes first. Record the ranking as a list of labels in the requested order.
Output: 5, 1, 3, 2, 4

[I] O=C(CC(=O)Nc1c(F)c(F)c(F)c(F)c1F)Nc1ccc2c(/C=C/c3ccccn3)n[nH]c2c1
[II] O=C(CC(=O)Nc1ccc2c(/C=C/c3ccccn3)n[nH]c2c1)Nc1ccc(F)cc1
Task: For the pair I and II , which entry has the numerically smaller recorded GI50? In your reply, give the label of the chosen option.
Output: II

====

test.method.notes: Half-life in mouse at 10 mg/kg, po measured after 5 to 720 mins by LC-tandem mass spectrometry analysis
Format: ADME, organism-based
study.conditions: in vivo
measured.quantity: half-life (h)
Only the number, expressed in h, is required.

Task: Suppose we examine the compound O=C(CC(=O)Nc1ccc2c(/C=C/c3ccccn3)n[nH]c2c1)Nc1cccc(F)c1 ; what half-life value has been reported?
Output: 1.6

====

test.method.notes: Oral bioavailability in Sprague-Dawley rat at 10 mg/kg measured after 5 to 720 mins by LC-tandem mass spectrometry analysis
Format: ADME, organism-based
study.conditions: in vivo
measured.quantity: bioavailability (%)
Only the number, expressed in %, is required.

Task: Suppose we examine the compound O=C(CC(=O)Nc1ccc2c(/C=C/c3ccccn3)n[nH]c2c1)Nc1cccc(F)c1 ; what bioavailability value has been reported?
Output: 27.5

====

target: Mast/stem cell growth factor receptor Kit (Homo sapiens, UniProt P10721)
Sequence (P10721 whole entry, the tested form may be a part): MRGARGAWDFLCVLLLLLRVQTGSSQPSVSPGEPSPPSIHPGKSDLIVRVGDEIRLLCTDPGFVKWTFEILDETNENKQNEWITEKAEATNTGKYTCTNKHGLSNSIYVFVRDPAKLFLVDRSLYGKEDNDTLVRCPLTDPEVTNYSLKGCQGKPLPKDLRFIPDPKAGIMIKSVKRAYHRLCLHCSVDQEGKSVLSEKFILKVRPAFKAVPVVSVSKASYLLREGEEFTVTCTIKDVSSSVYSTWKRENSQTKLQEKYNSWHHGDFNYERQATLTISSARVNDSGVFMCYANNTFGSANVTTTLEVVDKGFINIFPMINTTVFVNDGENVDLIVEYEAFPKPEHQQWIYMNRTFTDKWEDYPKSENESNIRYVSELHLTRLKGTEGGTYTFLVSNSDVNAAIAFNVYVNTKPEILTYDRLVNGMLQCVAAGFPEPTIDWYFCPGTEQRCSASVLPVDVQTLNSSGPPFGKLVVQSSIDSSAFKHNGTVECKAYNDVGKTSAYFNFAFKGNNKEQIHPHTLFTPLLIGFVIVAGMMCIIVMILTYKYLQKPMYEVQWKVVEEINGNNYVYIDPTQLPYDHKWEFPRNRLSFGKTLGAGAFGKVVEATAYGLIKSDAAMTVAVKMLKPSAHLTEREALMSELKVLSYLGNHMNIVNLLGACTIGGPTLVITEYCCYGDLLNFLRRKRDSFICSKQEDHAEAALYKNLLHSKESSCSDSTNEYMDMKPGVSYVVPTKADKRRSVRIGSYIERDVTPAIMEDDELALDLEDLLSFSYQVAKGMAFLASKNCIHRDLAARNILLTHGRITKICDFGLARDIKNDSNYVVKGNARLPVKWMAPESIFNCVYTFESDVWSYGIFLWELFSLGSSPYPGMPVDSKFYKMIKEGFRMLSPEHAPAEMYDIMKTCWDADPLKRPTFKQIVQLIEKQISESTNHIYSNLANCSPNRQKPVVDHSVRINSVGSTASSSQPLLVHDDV
test.method.notes: Inhibition of wild type TEL fused c-KIT (unknown origin) transfected in mouse BAF3 cells assessed as growth inhibition after 72 hrs by CCK8 assay
Assay type: cell-based
study.conditions: baf3, 72 h
measured.quantity: GI50 (nM)

Task: Suppose we examine the molecule COc1cccc(NC(=O)CC(=O)Nc2ccc3c(/C=C/c4ccccn4)n[nH]c3c2)c1 ; what GI50 value has been reported?
Output: 2740

[a] O=C(CC(=O)Nc1c(F)c(F)c(F)c(F)c1F)Nc1ccc2c(/C=C/c3ccccn3)n[nH]c2c1
[b] O=C(CC(=O)Nc1ccc2c(-c3cccc(F)c3)n[nH]c2c1)Nc1ccc(Cl)c(C(F)(F)F)c1
Task: For the pair a and b , which entry has the numerically smaller recorded GI50? In your reply, give the label of the chosen option.
Output: b
(b: 1120 nM, a: 2950 nM)

[I] O=C(Nc1ccc2c(/C=C/c3ccccn3)n[nH]c2c1)c1ccc(Cl)c(C(F)(F)F)c1
[II] CNC(=O)c1ccc(-c2n[nH]c3cc(NC(=O)CC(=O)Nc4ccc(Cl)c(C(F)(F)F)c4)ccc23)cc1
[III] NC(=O)c1cccc(-c2n[nH]c3cc(NC(=O)CC(=O)Nc4ccc(Cl)c(C(F)(F)F)c4)ccc23)c1
[IV] CN1CCN(Cc2ccc(-c3n[nH]c4cc(NC(=O)CC(=O)Nc5ccc(Cl)c(C(F)(F)F)c5)ccc34)cc2)CC1
[V] CNC(=O)c1ccccc1Sc1ccc2c(/C=C/c3ccccn3)n[nH]c2c1 [AXITINIB]
Task: rank_up(items): orders items by reported GI50 in ascending numerical order. Record the ranking as a list of labels in the requested order.
Output: IV, V, II, III, I
(IV: 19 nM, V: 105 nM, II: 338 nM, III: 1550 nM, I: 2970 nM)

[I] O=C(CC(=O)Nc1ccc2c(-c3cccnc3)n[nH]c2c1)Nc1ccc(Cl)c(C(F)(F)F)c1
[II] O=C(Cc1ccc(Cl)c(C(F)(F)F)c1)Nc1ccc2c(/C=C/c3ccccn3)n[nH]c2c1
[III] O=C(CC(=O)Nc1ccc2c(/C=C/c3ccccn3)n[nH]c2c1)Nc1ccccc1
[IV] Cc1cccc(NC(=O)CC(=O)Nc2ccc3c(/C=C/c4ccccn4)n[nH]c3c2)c1
Task: Sort these molecules on GI50 so the largest reading comes first. Record the ranking as a list of labels in the requested order.
Output: II, III, IV, I
(II: 5500 nM, III: 2220 nM, IV: 1430 nM, I: 320 nM)
